target: human full-length MKNK1 (Homo sapiens (Human), UniProt Q9BUB5, T344D); experiment: MKNK1 kinase high ATP assay (TR-FRET); format: biochemical; conditions: high ATP (2 mM), 15 min preincubation with enzyme; read-out: MKNK1 IC50
Sequence (Q9BUB5 other isoform, or with tags, fused parts or gaps T344D): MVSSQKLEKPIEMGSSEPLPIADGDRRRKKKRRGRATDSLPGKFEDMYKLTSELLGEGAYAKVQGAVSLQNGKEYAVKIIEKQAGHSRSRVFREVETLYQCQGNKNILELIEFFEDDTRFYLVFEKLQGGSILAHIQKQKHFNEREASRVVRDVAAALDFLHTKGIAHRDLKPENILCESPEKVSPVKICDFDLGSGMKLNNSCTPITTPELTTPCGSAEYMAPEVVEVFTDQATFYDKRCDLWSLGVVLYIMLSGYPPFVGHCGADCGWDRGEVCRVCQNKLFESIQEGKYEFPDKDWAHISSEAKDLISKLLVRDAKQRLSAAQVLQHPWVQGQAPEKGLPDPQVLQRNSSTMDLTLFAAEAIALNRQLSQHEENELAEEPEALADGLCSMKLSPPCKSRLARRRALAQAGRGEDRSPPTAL
pIC50: −log10 of the molar value.
Use satisfied when the recorded pIC50 is no lower than 8; use not satisfied when it is lower.

In [3]: df
Out[3]:
                                 cpd_smiles  qualitative_label
0  COc1cn2nccc2cc1Nc1ncnc2sc3c(c12)CC[C@H](C(=O)N1CCC(N(C)CCN(C)C)CC1)C3          satisfied
1  O=C([C@H]1CCc2c(sc3ncnc(Nc4ccn5nccc5c4)c23)C1)N1CC(O)C1      not satisfied
2  O=C([C@H]1CCc2c(sc3ncnc(Nc4cc5ccnn5cc4Cl)c23)C1)N1C[C@H]2C[C@@H]1CO2      not satisfied
3  O=C([C@H]1CCc2c(sc3ncnc(Nc4cc5ccnn5cc4Cl)c23)C1)N1CCOCC1          satisfied
4  COc1cn2nccc2cc1Nc1ncnc2sc3c(c12)CC[C@H](C(=O)Nc1ccc(F)c(Cl)c1)C3      not satisfied
5  CN(C)C1CN(C(=O)[C@H]2CCc3c(sc4ncnc(Nc5ccn6nccc6c5)c34)C2)C1      not satisfied
